Assay: Half life in Beagle dog at 1 mg/kg, po administered as single dose by LC-MS/MS analysis
Type: ADME, organism-based, Canis lupus familiaris
Settings: in vivo
ENDPOINT: half-life (h)

chemical_smiles=O=C(CC12CCC(C(=O)O)(CC1)C2)N1CCc2c(n(Cc3ccc(F)cc3)c3ncccc23)C1 value_units=h readout_value=5.9

---

Assay: Metabolic stability in rat hepatocytes assessed as parent compound remaining at 1 uM measured after 2 hrs by LC-MS/MS analysis
Type: ADME, cell-based, Hepatocyte
Settings: read-out: Stability
ENDPOINT: remaining at 2 h, 1 µM (%)

chemical_smiles=O=C(O)CCCCC(=O)N1CCc2c(n(Cc3cccc(F)c3)c3ncccc23)C1 value_units=% readout_value=10

The values you see were collected from ChEMBL document CHEMBL4616716.
